Target: JH2 domain of human Tyk2 (Homo sapiens (Human))
Sequence (P29597 575-876): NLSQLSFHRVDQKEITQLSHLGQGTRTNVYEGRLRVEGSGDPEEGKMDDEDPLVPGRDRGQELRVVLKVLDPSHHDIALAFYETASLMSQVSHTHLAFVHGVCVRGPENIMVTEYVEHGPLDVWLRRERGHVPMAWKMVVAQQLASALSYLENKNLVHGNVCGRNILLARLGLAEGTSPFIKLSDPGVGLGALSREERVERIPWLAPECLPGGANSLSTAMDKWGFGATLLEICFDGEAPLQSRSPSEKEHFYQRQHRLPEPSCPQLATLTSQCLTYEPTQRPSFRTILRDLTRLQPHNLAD
Assay: JH2 Biochemical Assay (TR-FRET probe displacement)
Type: binding
Details: TR-FRET probe displacement, JH2 domain of human Tyk2
Reported IC50 is given for each of the following compounds.

Lookup: May I ask what IC50 has been recorded for CCOc1cnc(NC(C)=O)cc1Nc1ccnc(C(C)(C)F)n1 ?
Found: ≤ 10 nM

Lookup: May I ask what IC50 has been recorded for CC(=O)Nc1cc(Nc2cc(C(C)C)nc(C(C)(F)F)n2)c(OCc2ccccn2)cn1 ?
Found: ≤ 10 nM

Lookup: May I ask what IC50 has been recorded for CC(=O)Nc1cc(Nc2cc(C)nc(C(C)(F)F)n2)c(Oc2ccnc(C(F)(F)F)n2)cn1 ?
Found: ≥ 1000 nM

Lookup: May I ask what IC50 has been recorded for COc1cnc(NC(C)=O)cc1Nc1cc(O[C@H]2C[C@H](OC)C2)nc(C(C)(F)F)n1 ?
Found: ≤ 10 nM

Lookup: May I ask what IC50 has been recorded for CCOc1cnc(NC(=O)COC)cc1Nc1cc(C)nc(C(C)(F)F)n1 ?
Found: ≤ 10 nM

Lookup: May I ask what IC50 has been recorded for COc1cnc(NC(C)=O)cc1Nc1cc(-c2cnn(C(C)C)c2)nc(C(C)(F)F)n1 ?
Found: ≤ 10 nM

Lookup: May I ask what IC50 has been recorded for COCCOc1cnc(NC(C)=O)cc1Nc1cc(C)nc(C(F)CF)n1 (centres unmarked) ?
Found: ≤ 10 nM

Lookup: May I ask what IC50 has been recorded for CC(=O)Nc1cc(Nc2cc(C)nc(C(C)(F)F)n2)c([C@H]2CCCO2)cn1 (single isomer, unassigned) ?
Found: 10 to 100 nM

Lookup: May I ask what IC50 has been recorded for COc1nccc(-c2cnc(NC(C)=O)cc2Nc2ccnc(C(C)(F)F)n2)n1 ?
Found: ≤ 10 nM

Lookup: May I ask what IC50 has been recorded for COCCOc1cnc(NC(C)=O)cc1Nc1nc(C)cc(C(F)CF)n1 (centres unmarked) ?
Found: 10 to 100 nM

Lookup: May I ask what IC50 has been recorded for COc1cnc(NC(C)=O)cc1Nc1cc(C(C)C)nc(C(C)(F)F)n1 ?
Found: ≤ 10 nM

Lookup: May I ask what IC50 has been recorded for CC(=O)Nc1cc(Nc2cc(C)nc(C(C)(F)F)n2)c(OC2CC2)cn1 ?
Found: ≤ 10 nM

Lookup: May I ask what IC50 has been recorded for COc1nccc(-c2cnc(NC(C)=O)cc2Nc2cccc(C(C)(F)F)n2)n1 ?
Found: ≤ 10 nM

Lookup: May I ask what IC50 has been recorded for COCCOc1cnc(NC(C)=O)cc1Nc1cc(C2CC2)nc(C(C)(F)F)n1 ?
Found: ≤ 10 nM

Lookup: May I ask what IC50 has been recorded for CCOc1cnc(NC(C)=O)cc1Nc1cc(-c2cnn(CC)c2)nc(C(C)(F)F)n1 ?
Found: ≤ 10 nM

Lookup: May I ask what IC50 has been recorded for CCc1cc(COc2cnc(NC(C)=O)cc2Nc2cc(C)nc(C(C)(F)F)n2)on1 ?
Found: ≤ 10 nM

Lookup: May I ask what IC50 has been recorded for CC(=O)Nc1cc(Nc2ccnc(C(C)(F)F)n2)c(-c2ccc(N(C)C)cn2)cn1 ?
Found: ≤ 10 nM
